Listed below: melting point values for each entry.

See these solved cases before continuing.
Compound	melting point
Cc1c(C)c2c(c(C)c1O)SC(CCC(N)=O)O2 (stereo unspecified)	160 to 161 °C
N#Cc1sc(C#N)c(Br)c1Br	138 to 139 °C
O=C1C(=O)c2ccccc2C2=C1SCC1(CCN(Cc3ccc(F)cc3)CC1)O2	104 to 106 °C
Cc1cc([N+](=O)[O-])c(Cl)c([N+](=O)[O-])c1C	109 to 111 °C
CCOc1cc(C(C)C)c2c(c1)S(=O)(=O)N(COC(=O)c1c(Cl)cccc1Cl)C2=O	140 to 141 °C

Please examine the following record next.
State the recorded melting point for this entry: C#CCn1nc(-c2ccc(F)cc2)c(-c2ccc(S(C)(=O)=O)cc2)cc1=O
168 to 169 °C

These entries and their values trace back to a melting point compilation (Tetko et al.; mined from patent text by program, amines drawn as free bases though some values may be those of a salt).
